- system: T1, biotin-peptide MADDYGSEST (human)
- T1 peptide: Biotin-MADDYGSEST
- protocol: ELISA biotin-peptide; scFv 10 ug/mL; repI
- Protocol: The peptides were synthesized naked or with a N-terminal Biotin modification with a purity of >98%. All four scFvs were verified by ELISA that can be detected with anti-His antibodies. ELISA was performed for scFv-peptide binding validation. Briefly, naked peptides were coated (50 μg/mL) in 0.58M carbonate-bicarbonate buffer pH9.5, 100 μL/well, 4° C. […]
Where no end group is shown, it is not given here. The star is where a group is joined. Biotin = O=C1N[C@H]2[C@H](CS[C@H]2CCCCC(=O)*)N1
Listed next: entries and their corresponding OD450.
measure: OD450 (OD)

[[record]]
binder = "Comparative antibody 1 (Comp-1) scFv, SEQ ID NO: 10 from WO2023/037125 A1, His-tagged (scFv) scFv: QVQLKESGPGLVQPSQTLSLTCTVSGFSVASYDMHWVRLPPGKGLEWMGIIWANGNTHYNSGLKSRLSISRDTSKSQVFLKMNSLQTEDTAIYFCTRGGFAYWGQGTLVTVSSGGGGSGGGGSGGGGSGGGGSDVVMTQTPVSLSVSLGGQVSISCRSSQSLVHNNGNTYLSWYLQKPGQSPQLLIYKVSNRFSGVSDRFSGSGSGTDFTLKISRVEPDDLGVYYCGQGTQYPTFGGGTKLELKHHHHHH"
display_unit = "OD"
readout_value = 0.08

[[record]]
binder = "Comparative antibody 2 (Comp-2) scFv, 243LO326 (VH SEQ ID NO: 51 and VL SEQ ID NO: 52 of WO 2022/195028 A2), His-tagged (scFv) scFv: QVQLVQSGAEVKKPGASVKVSCKASGYTFTSYWMHWVRQAPGQGLEWIGVIYPGNSDTRYNQKFKGRVTITRDTSASTAYMELSSLRSEDTAVYYCTRDYYSNYVYYYAMDYWGQGTTVTVSSGGGGSGGGGSGGGGSGGGGSDIVMTQTPLSLPVTPGEPASISCRSSQSLVHPNRNTYLHWYLQKPGQSPQLLIYKVSNRFSGVPDRFSGSGSGTDFTLKISRVEAEDVGVYYCSQSTHVPWTFGQGTKLEIKHHHHHH"
display_unit = "OD"
readout_value = 0.08

[[record]]
binder = "CCR9_HUM2 scFv (humanized anti-CCR9 scFv, SEQ ID NO: 17 with C-terminal 6xHis tag) (scFv) scFv: QVQLVQSGAEVKKPGASVKVSCTASGYSFTDYIIYWVKQAHGQSLEWMGYIDPNNYNTRYSQKFQGKVTITVDKSSTSAYMELNSLTSDDTAVYYCARDVYWGQGTTVTVSSGGGGSGGGGSGGGGSGGGGSDVVMTQTPLSLSVTPGQPASISCRSSQSLVHSNGKTYLQWYLQKPGQSPKLLIYKVSNRFSGVPDRFSGSGSGTDFTLKISRVEAEDVGVYFCAQSTHVWTFGGGTKVEIKRAHHHHHH"
display_unit = "OD"
readout_value = 0.09

[[record]]
binder = "Comparative antibody 3 (Comp-3) scFv, SR_92R (Somovilla-Crespo et al. 2018), His-tagged (scFv) scFv: EVKLEESGGGLVQPGGSMKLSCVASGFTFNKFWMNWVRQSPEKGLEWVAEIRLKSNNYATHYAESVKGRFTISRDDSKSSVYLQMNNLRAEDTGIYYCASDGWFAYWGQGTLVTVSAGGGGSGGGGSGGGGSGGGGSDVVMTQTPLSLPVSLGDQASISCRSSQSLVHSNGNTYLNWCLQRPGQSPKSLIYKVSNRFSGVPDRFSGSGSGTDFTLKISRVEAEDLGVYFCSQSTHFPRTFGGGTKLEIKRHHHHHH"
display_unit = "OD"
readout_value = 0.09

